# Tested on: CAOV3
# assay notes: Primary qHTS to identify gynecologic anti-cancer compounds using libraries of approved drugs and bioactive compounds (AID 1345084); note: % is set by controls: 0 for no effect and ±100 for the full control effect; nearly all actives have a fitted effect of over 55% in size
# run conditions: Gynecologic cancer cell panel viability, ATPlite luminescence, 48 h; series mostly up to 57.5 µM
Inconclusive results are not listed. Active and inactive are the calls of the source. Calls come from the whole dose curve; as a rule, active = well fitted cell-killing curve with a large enough effect; inconclusive = small, poorly fitted or top-dose-only effect, or effect the other way; inactive = flat fitted curve, though single readings scatter.
readout label: outcome

INSERT INTO results (smiles_str, experimental_target, recorded_result) VALUES
  ('O=C([C@@H]1CCCN(c2ccc3[nH]c(C4(n5cc(Cl)cn5)CC4)nc3n2)C1)N1CCCC1', 'CAOV3', 'inactive'),
  ('Cc1cc(-c2nc(-c3ccc(OC(F)(F)F)cc3)no2)nn1Cc1ccnc(N2CCN(C3CC3)CC2)c1', 'CAOV3', 'inactive'),
  ('CC(=O)O[C@@H]1[C@@H](OC(C)=O)[C@H](C)O[C@@H](O[C@H]2[C@@H]3C=CO[C@@H](O[C@@H]4O[C@H](CO)[C@@H](O)[C@H](O)[C@H]4O)[C@@H]3[C@@]3(CO)O[C@@H]23)[C@@H]1OC(=O)/C=C/c1ccccc1', 'CAOV3', 'inactive');

----------
# assay notes: Primary qHTS for inhibitors of nuclear receptor binding SET domain protein 2 (NSD2) in an RCH-ACV wild type WT cells (2C) (AID 1645877); note: nearly all actives have a fitted effect of over 70% in size
# run conditions: RCH-ACV (leukaemia line) NSD2 WT (2C) viability, CellTiter-Glo, 72 h; series mostly up to 44.9 µM
# Source text: Assay Provider: Jonathan D. Licht, MD University of Florida College of Medicine, Gainesville, FL Mutations in epigenetic regulators are common in relapsed pediatric acute lymphoblastic leukemia (ALL). Here, we uncovered the mechanism underlying the relapse of ALL driven by an activating mutation of the NSD2 histone methyltransferase (p.E1099K). […] Correction of this mutation restored glucocorticoid sensitivity. […]
Inconclusive results are not listed. Activity calls are given as the source filed them. Calls come from the whole dose curve; as a rule, active = well fitted inhibition curve with a large enough effect; inconclusive = small, poorly fitted or top-dose-only effect; inactive = no such curve, though single readings can be large or run the other way.
Valid outcomes are listed here; reply with one: 1 (active), 0 (inactive)

Query: For this compound, state the assay outcome: "Cc1cc2occ(CN(C)CCN(C)Cc3cn(-c4cccc(C(F)(F)F)c4)c4ccccc34)c(=O)c2cc1C"
Reply: 1

Query: Dear colleague, could you share the recorded outcome for Cc1noc(C)c1-c1cc(O)cc(C(O)c2ccccc2)c1 (centres undefined) when you have a moment?
Reply: 1

Query: Outcome? "CCOc1nc(NC(=O)Cc2cc(OC)ccc2OC)cc(N)c1C#N"
Reply: 0

Query: Hello, I am checking results. What call was entered for CC(C)CCNC(=O)c1ccc2c(c1)nc(Nc1n[nH]c3ccc(-c4ccccc4OC(F)(F)F)cc13)n2C1CCC(O)CC1 (centres undefined) ?
Reply: 1

Query: Would you mind telling me which call this test gave "CN(C)CCN(Cc1ccccc1)C(=O)c1cc(-c2ccc(F)cc2)n2nc(C(C)(C)C)cc2n1" ?
Reply: 1

Query: Tell me the assay call for C=C(C)C(=O)O[C@H]1C[C@@](C)(O)C2(O)CCC(C)(/C=C3/OC(=O)C(COC)=C31)O2 (some centres undefined) please.
Reply: 1

Query: Just curious, what result did "COc1ccc(Oc2c(Cl)cnn(-c3cc(C)cc(C)c3)c2=O)cc1" get here?
Reply: 1

Query: // param item: "C#CCNCc1cc2cc(OCc3ccccc3)ccc2[nH]1" ; yields the recorded call
Reply: 0

Query: Given CC(=O)NC(C)c1cnc(-c2cnc(Oc3ccc(OC(C)C)cc3)s2)s1 (centres undefined) , state the outcome it received in this test.
Reply: 1

Query: For "O=C(NS(=O)(=O)c1ccc(Br)s1)c1ccc(Cl)cc1Cl" , what call appears in the results of this test?
Reply: 1

Query: Hi team, can someone confirm the assay call for "CCc1c[nH]c2ncnc(N3CC[C@](N)(CNC(=O)c4ccc(F)cc4F)C3)c12" ?
Reply: 1

Query: I would be grateful if you could indicate the recorded call for "NC(=O)CCCSc1nc(N)nc(-c2c(Cl)cc3c4c(cccc24)COC3)n1" .
Reply: 1

Query: Which outcome was assigned to CC1OC(=O)C[C@@H]2C(C(=O)O)=CO[C@@H](O[C@H]3O[C@H](CO)[C@@H](O)[C@H](O)[C@H]3O)[C@H]12 (some centres undefined) in this test?
Reply: 0

Query: Could you kindly confirm the outcome this assay logged for "O=S1(=O)CCN(Cc2cc(NCC3CCOCC3)c3[nH]c(-c4ccccc4)cc3c2)CC1" ?
Reply: 1

Query: Assay result, entry C=C1CCCC2(C)CCC(C(C)(C)OC3OC(C)C(O)C(O)C3OC(=O)/C(C)=C\C)CC12 (centres undefined) — outcome?
Reply: 1

Query: What is the recorded call for this compound in the test? C=C1C(=O)OC2C1CCC1(C)C(O)CC=C(C)C21 (centres undefined)
Reply: 1

Query: Hi, sorry to bother you, what did the test record for "N#Cc1ccc(O[C@@H]2c3ccccc3C[C@H]2N2CCC[C@@H](N)C2)c(Cl)c1" ?
Reply: 1

Query: Lab log entry: "C=CC(=O)Nc1ccc2ncnc(Nc3cccc(Br)c3)c2c1" — outcome as called in the assay?
Reply: 1

Query: Hey, what did the test say about "C=C1C(=O)O[C@@H]2C[C@@]3(C)C[C@@H](O)C[C@H](C)C3=C[C@H]12" ?
Reply: 1

Query: Which outcome did this test record for the compound "COc1ccc(-c2cnc3c(-c4cccc5ncccc45)cnn3c2)cc1" ?
Reply: 0

Query: Assay result, entry COc1ccccc1N1CCN(CC(C(=O)NC(C)(C)C)c2ccccc2)CC1 (centres undefined) — outcome?
Reply: 0

Query: Test call, this compound: "CCCCC1CCN(CCCN2C(=O)CCc3ccccc32)CC1"
Reply: 1

Query: Can you look up the reported call for C=C1C(=O)OC2/C=C(\COC(C)=O)CC/C=C(\C=O)CC(OC(=O)CC(C)C)C12 (centres undefined) for me?
Reply: 1

Query: Which result was noted for this compound in the test: "NS(=O)(=O)c1ccc(NC(=O)Nc2ccc(F)cc2)cc1"
Reply: 0

Query: What was the test verdict on "CN(C)CCN(Cc1ccc(-c2ccc(CNCCc3ccccc3)cc2)cc1)C(=O)CCC1CCCC1" ?
Reply: 1

Query: State the result this test recorded for Nc1nc2c(ncn2C2OC3COP(=O)(O)OC3C2O)c(=O)[nH]1 (centres undefined) .
Reply: 0

Query: Tell me the recorded outcome of this test for "Cc1c(F)ccc(C(=O)Nc2cc([N+](=O)[O-])ccc2N2CCN(C)CC2)c1Cl" .
Reply: 0

Query: What did the test return for "OC1(CN2CCC(COc3noc4cccc(O[C@@H]5CCOC5)c34)CC2)CCOCC1" ?
Reply: 0

Query: Hi, do you know how "C=C1CC[C@H]2C(=C)CC[C@H]3C(=C)C(=O)O[C@@H]3[C@@H]12" came out in this test?
Reply: 1

Query: Write down the call the test reported for this compound. Item: "COc1ccc(C(=O)Nc2c(Cl)cncc2Cl)cc1OC1CCCC1"
Reply: 0

Query: Can you look up the reported call for "COc1cc(C(C)=O)c(OC)c2c1OC(C)(C)C=C2" for me?
Reply: 0

Query: Which result was noted for this compound in the test: CC1CC(=O)C2=C(C1)C1OC1C1(O)C2C(=O)c2cccc(O)c2C1O (centres undefined)
Reply: 0

Query: Lab log entry: "CCOc1ccc(Cc2nc(-c3c(C)nc4ccccn34)cs2)cc1" — outcome as called in the assay?
Reply: 1

Query: Please let me know the test result on file for "Cc1ccc(NC(=O)N2CCN(c3nc(N)nc4sc(-c5cccnc5)nc34)CC2)cc1" .
Reply: 1

Query: Dear colleague, could you share the recorded outcome for "CCC(=O)N1CCOc2c(cc(-c3ccc(OC)c(OC)c3)cc2OC[C@H]2CCCN(C)C2)C1" when you have a moment?
Reply: 1

Query: Please indicate how the test categorized "OC(c1ccc(-c2ccc(CN3CCN(Cc4ccncc4)CC3)cc2)c(F)c1)(C(F)(F)F)C(F)(F)F" .
Reply: 0

Query: Hi, do you know how "CCN(CC)C(=O)c1ccc(Nc2nc(OCC3CCCCC3)c3[nH]cnc3n2)cc1" came out in this test?
Reply: 1

Query: Would you mind telling me which call this test gave "CCOc1cc(C(C)(C)C)ccc1C1=N[C@@](C)(c2ccc(Cl)cc2)[C@@](C)(c2ccc(Cl)cc2)N1C(=O)N1CCN(CC(=O)N2CCOCC2)CC1" ?
Reply: 1

Query: Can you look up the reported call for "C=C(C)C(=O)O[C@H]1[C@H]2C(=C)C(=O)O[C@@H]2C[C@@H](C)[C@@H]2O[C@@H]2C(=O)[C@](C)(O)[C@@H]1OC(=O)C(=C)C" for me?
Reply: 1

----------
Exercise: state measured max response for each of the compounds provided.
# Tested on: KB-3-1
# assay notes: Cytotoxic Profiling of Annotated Libraries Using Quantitative High-Throughput Screening (AID 1296008); note: % is set by controls: 0 for no effect and ±100 for the full control effect; nearly all actives have a fitted effect of over 60% in size
# run conditions: Five cell lines viability, CellTiter-Glo ATP luminescence, 48-72 h; stronger effect = lower value
# Description: Cell-based phenotypic screening is a commonly used approach to discover biological pathways, novel drug targets, chemical probes and high-quality hit-to-lead molecules. […] A pintool (Kalypsys) was used to transfer 23 nL of compound solution to the 1536-well assay plates. […] Plates were left at room temperature for 10 min before imaging the ATP-coupled luminescence using a ViewLux microplate imager (PerkinElmer, Waltham, MA).
Records with an inconclusive call do not appear.
Report the value in % with no unit label.

Query: Return reported max response; argument: "CCc1ccc(-c2nc(CSCC(=O)NCCc3ccccc3)c(C)o2)cc1"
Reply: -10.3

Query: Which value of max response has been reported for "COc1nc2ccc(Br)cc2cc1[C@@H](c1ccccc1)[C@@](O)(CCN(C)C)c1cccc2ccccc12" in the records?
Reply: -1.57

Query: # query: max response of entry "COc1cc(CCO)ccc1O[C@@H]1O[C@H](CO)[C@@H](O)[C@H](O)[C@H]1O"
Reply: 7.87

Query: Please report the recorded max response for "NCCCC(=O)O" .
Reply: 2.75

Query: Bench note: what max response did CC(CN(C)C)CN1c2ccccc2S(=O)(=O)c2ccccc21 (stereo not given) show?
Reply: 23.6

Query: Look at this compound and give its reported max response. C=C1CC2OC(=O)C(=C)C2C(O)/C=C(\C)CCC1O (stereo not given)
Reply: 5.02

Query: Look up max response: "CCOC(=O)COc1ccc2c(C)c(CCN(CC)CC)c(=O)oc2c1"
Reply: -7.36

Query: Data request, read-out max response, for "COc1ccc(-c2cnc3c(-c4cccc5ncccc45)cnn3c2)cc1"
Reply: -5.9

Query: max response for "O=C(N[C@H]1CCC[C@H](CO)C1)C1CCN(c2nc3cc(Cl)c(-c4ccc(Cl)cc4)cc3o2)CC1" ?
Reply: -14.3

Query: Can you share its max response? I mean this compound: O=C(c1ccc(F)cc1)N1CCCC(c2nc(-c3ccc(F)cc3)no2)C1 (stereo not given)
Reply: -21.6

Query: What does the record list as max response for C=C1C(=O)OC2C3=C(C)C(=O)CC3C(C)CC(O)C12 (stereo not given) ?
Reply: 9.21

Query: So what does the record say about max response for C=CC(C)(O)CC[C@@H]1[C@@]2(C)CCCC(C)(C)C2CC[C@@]1(C)O (stereo not given in full) ?
Reply: -9.76

Query: So what's the measured max response for this one? "Cn1nnnc1SCC1=C(C(=O)O)N2C(=O)[C@@H](NC(=O)[C@H](OC=O)c3ccccc3)[C@H]2SC1"
Reply: -7.31

Query: Looking for the measured max response of "CCCCCCCCCCCCCCCC(=O)OC/C=C(C)/C=C/C=C(C)/C=C/C1=C(C)CCCC1(C)C" , can you help?
Reply: -13.6

Query: What value of max response has been reported for the following compound? "COC(=O)C(Cc1ccc(OCCn2c(=O)sc3cc(C(=O)c4ccccc4)ccc32)cc1)C(=O)OC"
Reply: 0.264

Query: Report max response for "C=C1CCN([C@H](C)[C@](O)(Cn2cncn2)c2ccc(F)cc2F)CC1" please.
Reply: -0.073

Query: Please look up its max response: "O=C(O)C1=CO[C@@H](O[C@@H]2O[C@H](CO)[C@@H](O)[C@H](O)[C@H]2O)[C@@H]2C(CO)=CC[C@H]12"
Reply: 6.01

Query: Suppose we examine the compound "CN(C)CCOc1cc(NS(=O)(=O)c2c(Cl)cc(C(F)(F)F)cc2Cl)ccc1Cl" ; what max response value has been reported?
Reply: -11

Query: Which max response is reported for this compound? CC1=CC2/C=C(\C)CCC3OC(C)(C)OC3CCC(=O)C23C(=O)NC(CC(C)C)C3C1C (stereo not given)
Reply: 3.72

Query: # query: max response of entry "COc1ccc(-c2ccccc2)cc1NS(=O)(=O)c1cc(Cl)cc(Cl)c1O"
Reply: 4.02

Data provenance: PubChem BioAssay (NCATS)
